Please respond with reported protein stability index for every item in the list.
B1: SNAP91 (parent)
chain: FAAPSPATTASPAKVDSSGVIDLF

Variants of: B1
Assay: protein stability index of a GFP-peptide fusion (GPS, HEK-293T) (PSI 1-6); higher = more stable;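 note: lentivirally expressed fusions sorted by FACS into six bins by GFP to DsRed ratio, PSI derived from sequencing read proportions per bin multiplied by bin number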
Details: c terminus: a fixed tail appended
API doc: respond with a numeric literal and nothing else, no unit.

Returns the measured protein stability index for the input variant. Input: FAGPSPATTASPAKVDSSGVIDLF
2.32

Record: FAAPSPATTASPAKVDSSGVIDKF
4.12

Record: FAAHSPATTASPAKVDSSGVIDLF
2.26

Record: FAAPSPATTASPAKCDSSGVIDLF
1.97

Record: FAAPSPATTASPHKVDSSGVIDLF
2.3

Record: FAAPSPATTASPAKVDSSGVIDLL
3.13

Record: FAAPSPATTASPAKRDSSGVIDLF
2.6

Record: FAAPSPATTASPAKPDSSGVIDLF
2.65

Record: FAAPSPATTASPAKVDESGVIDLF
2.45

Record: FAAPSPATWASPAKVDSSGVIDLF
3.89

Record: FAAPSPATTASHAKVDSSGVIDLF
2.27

Record: FAAPSPATTASPAKVDQSGVIDLF
2.52

Record: FAAPSPRTTASPAKVDSSGVIDLF
2.36

Record: FAAPSPATTASPAKVDSSGVMDLF
3.15

Record: FAAPSPATTASPAKVYSSGVIDLF
1.53

Record: FAAPSPATFASPAKVDSSGVIDLF
1.63

Record: FAAPSPATTAHPAKVDSSGVIDLF
2.08

Record: FAAASPATTASPAKVDSSGVIDLF
1.79

Record: FAAPSPATTALPAKVDSSGVIDLF
2.77

Record: FAAPSPATTTSPAKVDSSGVIDLF
2.36

Record: FAAPSPATTASPQKVDSSGVIDLF
2.37

Record: FAAPSPATTASPAKVDSSGVIDLM
3.72

Record: FAAESPATTASPAKVDSSGVIDLF
2.23

Record: FAAPSPATTASPAKVDSSQVIDLF
2.69

Record: FAMPSPATTASPAKVDSSGVIDLF
1.92

Record: FAAPSPATTASPAKVDSSGVIDLN
4.1

Record: FAAPSPATTASPAKVKSSGVIDLF
2.17

Record: FAAPSPATTASIAKVDSSGVIDLF
2.08

Record: FAAPSPATTASPAKVDSSGVIDRF
3.76

Record: FAAPSPATTASPAKVDSSGVPDLF
2.8

Record: FAAPSPATTASPAKVDSQGVIDLF
2.49

Record: FAAPSPATTASPAKVDSMGVIDLF
2.06

Record: FAAPSFATTASPAKVDSSGVIDLF
2.02

Record: FAAPSPATTASPAKVDSSGVIPLF
2.68

Record: FAAPSPATVASPAKVDSSGVIDLF
2.61

Record: FAAPSPATTAYPAKVDSSGVIDLF
2.35

Record: FAAPSPATTASPAKVDTSGVIDLF
2.43

Record: FAAPSPATTASPAKVDSSGVITLF
1.73

Record: FAAPSPATTKSPAKVDSSGVIDLF
2.23

Record: FAAPSPATTASPAKVDSDGVIDLF
2.97

Record: FAAPSPATTASPAKVDSSGVQDLF
3.05

Record: FAAPCPATTASPAKVDSSGVIDLF
2.16

Record: FAAPSPATTASPAKVDSCGVIDLF
2.1

Record: FAARSPATTASPAKVDSSGVIDLF
2.12

Record: FAAPNPATTASPAKVDSSGVIDLF
2.59

Record: FAAPSPATTASPAKVDSGGVIDLF
2.56

Record: FAADSPATTASPAKVDSSGVIDLF
2.33

Record: FAAPSPATTASPAKVASSGVIDLF
1.9

Record: FAAPSPATTASPAKVDSSGVINLF
2.24

Record: FAAPKPATTASPAKVDSSGVIDLF
2.66

Record: FAAPSPATTASPAKVDSSPVIDLF
2.06

Record: FAAPSPATTASPAKVDSSGYIDLF
2.07

Record: FEAPSPATTASPAKVDSSGVIDLF
4.29

Record: FAAPSPATTASPAKVDSSGMIDLF
2.5

Record: FAAPSPATTASPFKVDSSGVIDLF
2.01

Record: FAAPYPATTASPAKVDSSGVIDLF
1.96

Record: FAAPSPATTASPARVDSSGVIDLF
2.28

Record: FAAPSPACTASPAKVDSSGVIDLF
2.56

Record: TAAPSPATTASPAKVDSSGVIDLF
4.13

Record: MAAPSPATTASPAKVDSSGVIDLF
3.76

The measured values listed here are drawn from the supplement of paper PMC10567573.
